- ASSAY_PROTOCOL: NCI Yeast Anticancer Drug Screen. Data for the bub3 strain (AID 167)
- PARTICULARS: S. cerevisiae bub3 mutant strain, at 5.0 µM (retest, dose inferred, filed as 0.5), stronger effect = higher value
This is part of a sample that, as a whole, favours compounds with a hit. Of some 79,000 tested, about 15% had one in any assay.
Consider the following molecules and their measured growth inhibition readings.
Please respond with the number in % and leave the unit unwritten.

- CCO/C=C1N=C(/C=C/c2ccccc2Cl)OC/1=O: 13
- CS(=O)(=O)OCCN(CCOS(C)(=O)=O)c1ccc(C=Nc2ccc(-c3csc(-c4ccc(Br)cc4)n3)cc2)cc1: -4
- CCOC(=O)C1=C(N)N(S(=O)(=O)c2ccc(C)cc2)CCC(C(=O)OC)=C1: 1
- COC(C(=O)O)c1ccccc1 (configuration not stated): -2
- Clc1ccc2ccc3cccnc3c2n1: -7

Q: Give the measured growth inhibition for COc1ccccc1/C=C/c1ccnc2ccccc12
Result: 24

Q: Give the measured growth inhibition for O=C1CN=C(c2ccccc2)N(c2ccccc2)N1
Result: 8

Q: Give the measured growth inhibition for Cc1ccccc1NC(=O)CSC(N)=O
Result: 1

Q: Give the measured growth inhibition for OCc1c2c(cc3c1CC1(C3)Cc3cc4c(c(CO)c3C1)CCC4)CCC2
Result: 18

Q: Give the measured growth inhibition for CC1=CC(C2/C(=N/O)C=C(C)CC2(C)C)C(O)C(C)(C)C1 (configuration not stated)
Result: -23

Q: Give the measured growth inhibition for CCOC(=O)C1=C(Nc2ccc(Cl)c(Cl)c2)OC/C1=N\NS(=O)(=O)c1ccc(C)cc1
Result: 15

Q: Give the measured growth inhibition for Nc1ccc(C(=O)N/C(=C\c2ccc3c(c2)OCO3)c2nc3ccccc3s2)cc1
Result: 32

Each recorded value in this set is attributed to PubChem BioAssay (NCI).
